From: PubChem BioAssay AID485313

# protocol.description: qHTS Assay for NPC1 Promoter Activators; further: nearly all actives have a fitted effect of over 60% in size;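 on activation: reporter is driven by a mutant NPC1 promoter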
# condition.details: Huh7 NPC1 promoter luciferase reporter, 24 h; series mostly up to 9.22 µM
About 7,600 (2.4%) of roughly 320,000 compounds were called active. About 3% were inconclusive and are not listed. The call rests on the fitted dose curve; in most records, active means well fitted activation curve with a large enough effect; inconclusive means small, poorly fitted or top-dose-only effect; inactive means no such curve, though single readings can be large or run the other way. Shown is part of a subset that was picked to be rich in actives.
The categories you may choose from are Yes for active, No for inactive

Some solved entries appear below for comparison.
>>> label_value("Cc1ccc(C(=O)NNc2ncnc3ccccc23)cc1")
"Yes"
>>> label_value("Cc1cccc(C)c1NC(=O)COC(=O)c1c(C)nn(-c2ccccc2)c1C")
"No"

What was the test verdict on O=C(Nc1cc2ccccc2oc1=O)C1CCCCC1 ?
Yes

Do the same for O=C(c1cc2ccccc2o1)N1CCN(S(=O)(=O)c2ccc(Cl)s2)CC1 please
No

Do the same for O=[N+]([O-])c1ccc(NC(=S)N2CCN(c3ccccn3)CC2)cc1 please
No
